System: spontaneous motor function in mice
Test: Inhibition of spontaneous motor function in mice, Winter and Flataker test (photoelectric method)
Assay type: in vivo
Conditions: Mus musculus, po, read-out: ID50 p.o., Winter and Flataker test
Recorded measurements of ED50, one per entry

Looking up CNS(=O)(=O)c1cc2c(c(C(=O)NCC3CCCN3CC3=CCCCC3)c1)OCCC2 (stereo not drawn) , I see its ED50 listed as 31.5 mg/kg

Looking up O=C(NCC1CCCN1CC1=CCCCC1)c1cc(Cl)cc2c1OCC2 (stereo not drawn) , I see its ED50 listed as 27 mg/kg

Looking up CCS(=O)(=O)c1cc2c(c(C(=O)NCC3CCCN3CC3CC3)c1)OCCC2.Cl (stereo not drawn) , I see its ED50 listed as 33.9 mg/kg

Looking up O=C(NCC1CCCN1CC1CC1)c1cc(S(=O)(=O)CC2CC2)cc2c1OCCC2 (stereo not drawn) , I see its ED50 listed as 55 mg/kg

Looking up C=CCN1CCCC1CNC(=O)c1cc(S(=O)(=O)CC2CC2)cc2c1OCCC2 (stereo not drawn) , I see its ED50 listed as 65 mg/kg

Looking up CC1Cc2cc(Cl)cc(C(=O)NCC3CCCN3CC3=CCCCC3)c2O1 (stereo not drawn) , I see its ED50 listed as 43.4 mg/kg

Looking up CCS(=O)(=O)c1cc2c(c(C(=O)NCC3CCCN3CC3=CCCCC3)c1)OCCC2 (stereo not drawn) , I see its ED50 listed as 16.6 mg/kg

Looking up CNS(=O)(=O)c1cc2c(c(C(=O)NCC3CCCN3CC3=CCCCC3)c1)OC(C)C2 (stereo not drawn) , I see its ED50 listed as 12.4 to 13.2 mg/kg

Consider the additional molecule presented here.
Looking up CCN(CC)CCNC(=O)c1cc(Cl)c(N)c2c1OC(C)C2 (stereo not drawn) , I see its ED50 listed as 32 mg/kg
